Source: PubChem BioAssay AID651820

Test: qHTS Assay for Inhibitors of Hepatitis C Virus (HCV); also: potency is read from the fitted curve at half-maximal effect
Details: Huh7.5.1 HCVcc-Cre infection, luciferase reporter, 44 h; series mostly up to 41.8 µM
Hit rate of the full screen: of about 340,000 compounds, about 12,000 (3.5%) were called active. Inconclusive results (about 18%) are left out. Many of the other results were omitted from the sample, so actives are more common in it than they were.
Quantity: Potency

// solved cases for Potency follow
>>> print(df.to_string())
                                   compound  quantity           reading
0  O=C(CN1C(=O)NC(Cc2c[nH]c3ccccc23)C1=O)Nc1ccccc1C(F)(F)F (stereo unspecified)   Potency          inactive
1  COc1ccc(CCC(=O)Nc2ccc(Cl)c(S(=O)(=O)N3CCOCC3)c2)cc1OC   Potency  11.2 µM (active)
2  COc1ccc(CNC(=O)COC(=O)c2ccc(C)c(S(=O)(=O)N3CCOCC3)c2)cc1OC   Potency          inactive
3       CN(CC(=O)NC(=O)Nc1ccccc1F)Cc1ccccc1   Potency          inactive

query: // lookup Potency for COc1cc(S(=O)(=O)N2CCN(C(=O)C3CC3)CC2)ccc1NC(C)=O
result: inactive

query: // lookup Potency for CCN(CC)S(=O)(=O)c1ccc(Cl)c(C(=O)NCCN2CCOCC2)c1
result: inactive

query: // lookup Potency for CCOC(=O)CNC(=O)CSc1nnc(COc2ccc(Cl)cc2)n1CC
result: inactive

query: // lookup Potency for Nc1nonc1-n1nnc(C(=O)N/N=C/c2ccccc2O)c1CN1CCCC1
result: inactive

query: // lookup Potency for COc1ccc(CC(=O)Nc2ccc3c(c2)CCC3)cc1S(=O)(=O)N1CCOCC1
result: inactive

====

Test: qHTS Assay for Inhibitors of Hepatitis C Virus (HCV)
Conditions: Huh7.5.1 HCVcc-Cre infection, luciferase reporter, 44 h; series mostly up to 41.8 µM
Out of some 340,000 compounds screened, about 12,000 (3.5%) were called active. Not shown: some 18% with an inconclusive outcome. Calls follow the shape of the dose curve; as a rule, active = well fitted inhibition curve with a large enough effect; inconclusive = small, poorly fitted or top-dose-only effect, or another doubt; inactive = no such curve, though single readings can be large or run the other way. The full list was thinned out, with actives kept by preference.
Pick one: Y (active), N (inactive)

query: Call for entry CN(C)S(=O)(=O)c1ccc(Oc2ccc(S(=O)(=O)N(C)C)cc2)cc1 :
result: Y

query: Call for entry CCCSc1nc(NCc2ccco2)c2c3c(sc2n1)COC(C)(CC)C3 (stereo not drawn) :
result: N

query: Call for entry Cc1cc(Oc2ccc(Cl)cc2)nc(SCC(=O)c2ccccc2)n1 :
result: N

query: Call for entry CC(=O)CC(CC(=O)NC1CCCCC1)c1ccccc1 (stereo not drawn) :
result: N

query: Call for entry COc1ccc(C(=O)C[n+]2ccc(N)c(C)c2C)cc1 :
result: Y

query: Call for entry CC(=O)c1c(OCC(=O)N(C)C2CCCCC2)ccc2c(C)cc(=O)oc12 :
result: N

====

Assay: qHTS Assay for Inhibitors of Hepatitis C Virus (HCV)
Details: Huh7.5.1 HCVcc-Cre infection, luciferase reporter, 44 h; series mostly up to 41.8 µM
The campaign covered roughly 340,000 compounds. About 12,000 (3.5%) were called active. Roughly 18% stayed inconclusive and do not appear here. Calls follow the shape of the dose curve; as a rule, active = well fitted inhibition curve with a large enough effect; inconclusive = small, poorly fitted or top-dose-only effect, or another doubt; inactive = no such curve, though single readings can be large or run the other way. The full list was thinned out, with actives kept by preference.
Pick one: y for active, n for inactive

                                   molecule  category
0  O=C(C[C@H]1C[C@H](C(=O)N2CCOCC2)[C@@]2(CCC3CCCC3)c3[nH]c4ccc(Cl)cc4c3CCN2C1=O)NCc1ccco1         n

query: Call for entry CC(C)(CNC(=O)c1ccc(Cl)c(S(=O)(=O)N2CCc3ccccc3C2)c1)N1CCOCC1 :
result: y

query: Call for entry O=C(NCC1CCCO1)c1ccc2ccccc2n1 (stereo not given) :
result: n

query: Call for entry O=C(NCC1CCCO1)c1cc2c([nH]c3ccccc32)c(-c2ccc(F)cc2)n1 (stereo not given) :
result: y

query: Call for entry O=C(NCCc1ccc(F)cc1)c1n[nH]c2ccccc12 :
result: n

query: Call for entry Cc1ccccc1CSCCNC(=O)c1ccc(N(C)S(=O)(=O)c2ccccc2)cc1 :
result: y
